- target_or_system: K+ Channel hERG (Homo sapiens)
- Sequence (Q12809 whole entry): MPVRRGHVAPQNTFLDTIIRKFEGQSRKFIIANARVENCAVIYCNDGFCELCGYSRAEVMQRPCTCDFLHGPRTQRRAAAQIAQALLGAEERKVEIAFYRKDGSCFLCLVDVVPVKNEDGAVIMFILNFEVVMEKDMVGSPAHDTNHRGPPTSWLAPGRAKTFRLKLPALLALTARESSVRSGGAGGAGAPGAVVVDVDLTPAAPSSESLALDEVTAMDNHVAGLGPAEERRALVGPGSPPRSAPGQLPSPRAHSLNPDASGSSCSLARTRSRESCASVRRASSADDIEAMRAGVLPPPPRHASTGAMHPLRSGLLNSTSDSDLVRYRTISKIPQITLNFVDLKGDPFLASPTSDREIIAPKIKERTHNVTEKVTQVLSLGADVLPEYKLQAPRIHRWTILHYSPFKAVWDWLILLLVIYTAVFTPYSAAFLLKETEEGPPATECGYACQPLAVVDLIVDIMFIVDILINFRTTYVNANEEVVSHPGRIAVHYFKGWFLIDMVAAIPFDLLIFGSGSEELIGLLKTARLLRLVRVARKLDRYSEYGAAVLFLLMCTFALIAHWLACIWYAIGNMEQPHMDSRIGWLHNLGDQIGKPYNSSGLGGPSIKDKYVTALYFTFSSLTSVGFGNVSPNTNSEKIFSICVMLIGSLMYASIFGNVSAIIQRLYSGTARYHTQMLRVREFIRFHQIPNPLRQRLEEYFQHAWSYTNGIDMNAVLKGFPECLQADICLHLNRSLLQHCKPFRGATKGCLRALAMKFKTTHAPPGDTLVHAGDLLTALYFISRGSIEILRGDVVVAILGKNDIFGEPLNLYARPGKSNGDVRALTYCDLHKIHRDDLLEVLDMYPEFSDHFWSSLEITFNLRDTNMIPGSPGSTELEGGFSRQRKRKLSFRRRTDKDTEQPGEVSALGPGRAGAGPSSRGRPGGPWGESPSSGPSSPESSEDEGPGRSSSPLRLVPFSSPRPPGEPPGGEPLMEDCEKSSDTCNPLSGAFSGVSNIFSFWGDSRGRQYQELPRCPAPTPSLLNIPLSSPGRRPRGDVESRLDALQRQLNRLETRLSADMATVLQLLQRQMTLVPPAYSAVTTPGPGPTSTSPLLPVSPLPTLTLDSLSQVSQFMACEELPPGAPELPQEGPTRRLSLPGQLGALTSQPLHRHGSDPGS
- experiment_notes: receptor screen, K+ Channel hERG
- Type: binding
- condition_parameters: read-out: Ki K+ Channel hERG; receptor screen, [3H]Astemizole
recorded_endpoint: pKi
Bear in mind: pKi is minus log10 of a mol/L concentration; give just that figure.

Request: # input molecule: CN1C2CCC1CC(OC(c1ccccc1)c1ccc(Cl)cc1)C2 (stereo not shown) ; wanted: its pKi
Response: 6.09
